B1: 1ZHC (parent)
chain: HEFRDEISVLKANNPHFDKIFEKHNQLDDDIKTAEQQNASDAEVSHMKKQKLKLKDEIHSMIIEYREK

Variants of: B1
Experiment: folding stability dG (cDNA display proteolysis); higher = more stable
Details: PBS, room temperature
Measured quantity: folding stability dG (kcal/mol)
Enter your answer as a number in kcal/mol; do not include the unit.

Some solved cases for reference:
mutant_label=V9D measured_quantity="folding stability dG" units_symbol=kcal/mol observed_measurement=0.497
mutant_label=S60N measured_quantity="folding stability dG" units_symbol=kcal/mol observed_measurement=0.933
mutant_label=S45K measured_quantity="folding stability dG" units_symbol=kcal/mol observed_measurement=0.976
mutant_label=Q36K measured_quantity="folding stability dG" units_symbol=kcal/mol observed_measurement=0.963
mutant_label=H24C measured_quantity="folding stability dG" units_symbol=kcal/mol observed_measurement=1.86
mutant_label=K68C measured_quantity="folding stability dG" units_symbol=kcal/mol observed_measurement=0.745
mutant_label=D41I measured_quantity="folding stability dG" units_symbol=kcal/mol observed_measurement=0.951
mutant_label=K51C measured_quantity="folding stability dG" units_symbol=kcal/mol observed_measurement=0.855

Could you share which folding stability dG value was measured for `D56R` ?
1.21

Which folding stability dG value is on record for `D30T` ?
0.396

Would you mind telling me what folding stability dG value was observed for `N38F` ?
0.925

// provenance: the MegaScale stability set (Tsuboyama et al. 2023)
